tested on: SEM cells; assay: cell viability relative to DMSO control; higher = less cytotoxic; details: HPLM + 10% dialyzed FBS; 48 h; 0.00702 µM
# cell viability per record follows
quantity.kind: cell viability (%)

[[record]]
given_smiles = "CN1CCN(C2=Nc3cc(Cl)ccc3Nc3ccccc32)CC1"
target_or_test_system = "SEM cells"
number = 108

[[record]]
given_smiles = "CCC[C@H](NC(=O)[C@@H]1[C@H]2CCC[C@H]2CN1C(=O)[C@@H](NC(=O)[C@@H](NC(=O)c1cnccn1)C1CCCCC1)C(C)(C)C)C(=O)C(=O)NC1CC1"
target_or_test_system = "SEM cells"
number = 106

[[record]]
given_smiles = "CCN(CC)CCCCNc1ncc2cc(-c3cc(OC)cc(OC)c3)c(NC(=O)NC(C)(C)C)nc2n1"
target_or_test_system = "SEM cells"
number = 119

[[record]]
given_smiles = "C[C@H]1COC2=C3N1\\C=C(C(O)=O)/C(=O)C3=CC(=C2N4CCN(C)CC4)F"
target_or_test_system = "SEM cells"
number = 117

[[record]]
given_smiles = "CCN1\\C=C(\\C(O)=O)C(=O)C2=C1C=C(N3CCNCC3)C(=C2)F"
target_or_test_system = "SEM cells"
number = 125

[[record]]
given_smiles = "NC1=C(Cl)C(=CC=N1)OC2=C(F)C=C(NC(=O)\\C3=C\\N\\C=C(C3=O)\\C4=CC=C(F)C=C4)C=C2"
target_or_test_system = "SEM cells"
number = 121

[[record]]
given_smiles = "FC1=CC=C(C=C1)N2/C=C\\C=C(C(=O)NC3=CC=C(OC4=C5C=C[NH]C5=NC=C4)C(=C3)F)/C2=O"
target_or_test_system = "SEM cells"
number = 104

[[record]]
given_smiles = "CC(C)OC(=O)C(C(=O)OC(C)C)=C1S\\C=C/S1"
target_or_test_system = "SEM cells"
number = 128

[[record]]
given_smiles = "Cn1cnc2c(F)c(Nc3ccc(Br)cc3F)c(C(=O)NOCCO)cc21"
target_or_test_system = "SEM cells"
number = 93.4


The reported measurements were obtained from the supplement of paper PMC11451515.
